target: UniProtKB Q9JKC1; test: Inhibition of rat serum BChE using butyrylthiocholine chloride as substrate incubated for 15 mins by Ellman's method
Sequence (Q9JKC1 whole entry): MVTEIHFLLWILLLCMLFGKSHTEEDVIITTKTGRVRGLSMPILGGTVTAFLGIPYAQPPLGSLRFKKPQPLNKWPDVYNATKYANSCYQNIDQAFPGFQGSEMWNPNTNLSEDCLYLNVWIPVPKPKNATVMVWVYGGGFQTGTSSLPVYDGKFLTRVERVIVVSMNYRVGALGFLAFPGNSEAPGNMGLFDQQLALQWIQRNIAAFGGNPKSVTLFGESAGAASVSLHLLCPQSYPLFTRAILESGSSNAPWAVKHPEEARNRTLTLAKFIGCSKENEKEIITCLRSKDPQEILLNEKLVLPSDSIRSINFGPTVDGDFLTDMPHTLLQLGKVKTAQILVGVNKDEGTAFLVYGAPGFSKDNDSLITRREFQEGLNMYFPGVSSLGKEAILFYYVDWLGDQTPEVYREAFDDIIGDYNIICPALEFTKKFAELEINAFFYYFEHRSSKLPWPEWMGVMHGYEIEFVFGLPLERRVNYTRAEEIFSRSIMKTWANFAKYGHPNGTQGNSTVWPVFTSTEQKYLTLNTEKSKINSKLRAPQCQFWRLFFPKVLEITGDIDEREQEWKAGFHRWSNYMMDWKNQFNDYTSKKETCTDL
Examples of compounds with documented pIC50 follow.
Friendly reminder that pIC50 comes from taking -log10 of the concentration in mol/L.

For orientation, consider the following solved cases.
chemical_smiles=CCN(CCCCN1C(=O)c2ccccc2C1=O)Cc1ccccc1 assayed_system="UniProtKB Q9JKC1" reported_measurement=4.88
chemical_smiles=CN(CCCCN1C(=O)c2ccccc2C1=O)Cc1ccccc1 assayed_system="UniProtKB Q9JKC1" reported_measurement=5.08
chemical_smiles=C#CCN(CCCCCN1C(=O)c2ccccc2C1=O)Cc1ccccc1OC assayed_system="UniProtKB Q9JKC1" reported_measurement=4.35

Look up pIC50: COc1ccccc1CN(C)CCCCCCN1C(=O)c2ccccc2C1=O
4.37

###

assay: Selectivity index, ratio of IC50 for equine serum BChE to IC50 for electric eel AChE
Each record here notes measured Ratio IC50.
When you answer, write just the number.

Below, each entry is followed by its recorded Ratio IC50 result.
chemical_smiles=CC(C)N1CCN(CCCCCN2C(=O)c3ccccc3C2=O)CC1 endpoint_name="Ratio IC50" reported_measurement=4.4
chemical_smiles=CN(CCN1C(=O)c2ccccc2C1=O)Cc1ccccc1 endpoint_name="Ratio IC50" reported_measurement=1.4
chemical_smiles=CCN(CCCN1C(=O)c2ccccc2C1=O)Cc1ccccc1OC endpoint_name="Ratio IC50" reported_measurement=12.6
chemical_smiles=CCN(CCCCCCN1C(=O)c2ccccc2C1=O)Cc1ccccc1 endpoint_name="Ratio IC50" reported_measurement=11
chemical_smiles=CCN(CCCCN1C(=O)c2ccccc2C1=O)Cc1ccccc1OC endpoint_name="Ratio IC50" reported_measurement=238

I have this compound here, CC(C)N1CCN(CCCN2C(=O)c3ccccc3C2=O)CC1 , and I need its recorded Ratio IC50.
2.7

###

A short record of pIC50 observed with Acetylcholinesterase (Homo sapiens) follows.
Sequence (P22303 whole entry): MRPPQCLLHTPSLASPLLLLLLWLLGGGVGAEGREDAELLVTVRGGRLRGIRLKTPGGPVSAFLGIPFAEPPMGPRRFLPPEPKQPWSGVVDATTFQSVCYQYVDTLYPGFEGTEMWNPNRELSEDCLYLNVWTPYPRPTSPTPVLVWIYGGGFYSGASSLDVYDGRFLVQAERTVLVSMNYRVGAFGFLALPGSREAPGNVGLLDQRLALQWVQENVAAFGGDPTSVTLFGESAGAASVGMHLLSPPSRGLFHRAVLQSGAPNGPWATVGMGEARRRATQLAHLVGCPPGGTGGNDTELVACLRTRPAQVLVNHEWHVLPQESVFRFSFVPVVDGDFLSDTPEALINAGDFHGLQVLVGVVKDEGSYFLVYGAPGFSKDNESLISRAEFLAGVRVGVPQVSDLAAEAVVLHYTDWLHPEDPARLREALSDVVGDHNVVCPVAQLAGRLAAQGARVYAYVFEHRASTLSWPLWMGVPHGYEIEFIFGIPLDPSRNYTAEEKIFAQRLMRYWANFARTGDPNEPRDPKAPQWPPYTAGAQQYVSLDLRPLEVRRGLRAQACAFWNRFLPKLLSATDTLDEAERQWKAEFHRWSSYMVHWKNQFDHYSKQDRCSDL
In plain terms, pIC50 is the concentration in mol/L turned into minus its base-10 logarithm.

molecule="C#CCN[C@@H]1CCc2ccccc21 [RASAGILINE]" endpoint_name=pIC50 reported_measurement=7.72
molecule=CCN(CCCN1C(=O)c2ccccc2C1=O)Cc1ccccc1OC endpoint_name=pIC50 reported_measurement=5.35
molecule=CCN(CCCCN1C(=O)c2ccccc2C1=O)Cc1ccccc1 endpoint_name=pIC50 reported_measurement=6.17
molecule=CCN(CCCCCCN1C(=O)c2ccccc2C1=O)Cc1ccccc1OC endpoint_name=pIC50 reported_measurement=6.23
molecule=CCN(CCCCN1C(=O)c2ccccc2C1=O)Cc1ccccc1OC endpoint_name=pIC50 reported_measurement=6.55

GET /values?readout=pIC50&system=Acetylcholinesterase (Homo sapiens)&item= C#CCN(CCCN1C(=O)c2ccccc2C1=O)Cc1ccccc1
5.92

What reported pIC50 corresponds to CCN(CCCCCCN1C(=O)c2ccccc2C1=O)Cc1ccccc1 on Acetylcholinesterase (Homo sapiens)?
5.43

###

experiment: Selectivity index, ratio of IC50 for equine serum BChE to IC50 for electric eel AChE
One threshold, 3, splits the recorded Ratio IC50 values: lower ones are rule met, equal or higher ones are rule not met.

Solved cases (3 shown):
chemical_smiles=CCN(CCCCN1C(=O)c2ccccc2C1=O)Cc1ccccc1 label_class="rule not met"
chemical_smiles=CCN(CCCCCCN1C(=O)c2ccccc2C1=O)Cc1ccccc1OC label_class="rule not met"
chemical_smiles=C#CCN(CCCCCCN1C(=O)c2ccccc2C1=O)Cc1ccccc1 label_class="rule met"

Record CC(C)N1CCN(CCCCCCN2C(=O)c3ccccc3C2=O)CC1 : is its Ratio IC50 strictly below 3?
rule met

Problem: For the molecule C#CCN(CCCCCCN1C(=O)c2ccccc2C1=O)Cc1ccccc1OC , is Ratio IC50 under 3?
rule met

For this molecule, is Ratio IC50 lower than 3? C#CCN(CCCCN1C(=O)c2ccccc2C1=O)Cc1ccccc1
rule met

State whether 3 exceeds Ratio IC50 recorded for COc1ccccc1CN(C)CCCN1C(=O)c2ccccc2C1=O .
rule met
